# Test summary: in vitro
# Condition details: plasma
Square brackets hold non-standard residues; d marks the D form. Peptide text beside a SMILES is read from it. * marks the point of attachment. dPhe(4-NHCONH2) = NC(=O)Nc1ccc(C[C@@H](N)C(=O)O)cc1; Dihydroorotyl(S) = O=C1C[C@@H](C(=O)*)NC(=O)N1; dPhe(4-Cl) = N[C@H](Cc1ccc(Cl)cc1)C(=O)O; Phe(4-NH2) = Nc1ccc(C[C@H](N)C(=O)O)cc1; d2Nal = N[C@H](Cc1ccc2ccccc2c1)C(=O)O; Lys(iPr) = CC(C)NCCCC[C@H](N)C(=O)O; d3Pal = N[C@H](Cc1cccnc1)C(=O)O
Property label: fraction unbound

Find the measured fraction unbound of CC(=O)N[C@H](Cc1ccc2ccccc2c1)C(=O)N[C@H](Cc1ccc(Cl)cc1)C(=O)N[C@H](Cc1cccnc1)C(=O)N[C@@H](CO)C(=O)N[C@@H](Cc1ccc(NC(=O)[C@@H]2CC(=O)NC(=O)N2)cc1)C(=O)N[C@H](Cc1ccc(NC(N)=O)cc1)C(=O)N[C@@H](CC(C)C)C(=O)N[C@@H](CCCCNC(C)C)C(=O)N1CCC[C@H]1C(=O)N[C@H](C)C(N)=O [degarelix] (Ac-[d2Nal][dPhe(4-Cl)][d3Pal]S[Phe(4-NH2)](Dihydroorotyl(S))[dPhe(4-NHCONH2)]L[Lys(iPr)]P[dA]-NH2) and report it.
~0.1
